Measured Target: T1, ZFP SBS#1266 (synthetic)
T1 chain: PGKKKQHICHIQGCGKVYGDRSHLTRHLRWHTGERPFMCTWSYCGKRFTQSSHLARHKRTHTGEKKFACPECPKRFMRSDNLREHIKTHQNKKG
Experiment: EMSA
Test Settings: tags: MBP fusion
Value Kind: Kd (nM)
Report as a plain number; the unit nM is understood.

So, CAGGGTGGC (dsDNA) DNA 1: CAGGGTGGC DNA 2: GCCACCCTG ? Its Kd was 6.1
